molecular target: GSK3A (Homo sapiens); experiment: NanoBRET cellular target engagement assay, Nanoluc-GSK3A in HEK293 cells; settings: NanoBRET GSK3α IC50, HEK293 cells, tracer K-8, 2 hours, 37° C
readout: IC50 (nM)

Before answering, review these 2 worked examples.
>>> print(df.to_string())
                                   compound  readout  resultvalue
0  COCc1cc(C)c(-n2cnc(N)c(C(=O)Nc3cncc(C4CCCCCN4)c3)c2=O)c(C)c1 (single isomer, unassigned)     IC50          3.9
1  CNCc1cncc(NC(=O)c2c(N)ncn(-c3c(Cl)cc(C(F)CF)cc3Cl)c2=O)c1 (single isomer, unassigned) [Example 117]     IC50          1.4

(P) Cc1cc(C(C)(F)F)cc(C)c1-n1cnc(N)c(C(=O)Nc2cncc([C@H]3CCCCN3)c2)c1=O
(Q) Nc1ncn(-c2c(Cl)cccc2Cl)c(=O)c1C(=O)Nc1cncc([C@H]2CCOCCN2)c1 (single isomer, unassigned)
Just curious, which one has the larger IC50 reading, P or Q ? Mark your selection by writing its label. Q

====

Target: human GSK3α (Homo sapiens, UniProt P49840)
Construct: Full length human GSK3α or GSK3B expressed as N-terminal GST fusion proteins; GST (N); purchased Carna Biosciences (Japan); host or cells: baculovirus host
Sequence (P49840 whole entry, the tested form may be a part): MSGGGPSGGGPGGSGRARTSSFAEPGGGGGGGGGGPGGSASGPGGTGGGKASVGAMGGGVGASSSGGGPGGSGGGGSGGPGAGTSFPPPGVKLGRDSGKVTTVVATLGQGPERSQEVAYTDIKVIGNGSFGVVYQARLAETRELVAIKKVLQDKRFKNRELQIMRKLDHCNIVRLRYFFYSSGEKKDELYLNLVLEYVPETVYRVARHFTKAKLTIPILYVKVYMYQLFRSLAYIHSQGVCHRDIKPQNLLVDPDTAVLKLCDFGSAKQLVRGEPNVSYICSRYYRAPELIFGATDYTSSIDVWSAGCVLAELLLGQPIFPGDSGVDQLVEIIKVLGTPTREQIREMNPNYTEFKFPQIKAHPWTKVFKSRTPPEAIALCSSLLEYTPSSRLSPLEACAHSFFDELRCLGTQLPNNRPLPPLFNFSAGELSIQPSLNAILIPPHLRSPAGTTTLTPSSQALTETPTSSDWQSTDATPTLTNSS
Assay: In vitro enzymatic activity assay, GSK3α
Type: biochemical
Details: 1.0 mM ATP, 1.0 μM peptide substrate, 120 min, 25° C, read-out: Enzyme GSK3α (IC50)
Procedure: Full length human GSK3α or GSK3B expressed as N-terminal GST fusion proteins in baculovirus host were purchased from Carna Biosciences (Japan). The kinase was pre-incubated with ATP (adenosine-5′-triphosphate) for 45 min, then incubated with tested compounds for another 45 min in assay buffer that contains 100 mM HEPES (N-2-hydroxyethylpiperazine-N′-2-ethanesulfonic acid), pH 7.5, 10 mM MgCl2, 1.0 mM DTT, and 0.015% Briji-35. […] IC50 value was determined from the 4-parameter logistic curve fitting.
pIC50: −log10 of the molar value.
readout: pIC50

Some solved entries appear below for comparison.
>>> df
                                   compound  resultvalue
0  CN[C@H](C)c1cccc(NC(=O)c2c(N)ncn(-c3c(C)cc(C(F)(F)F)cc3Cl)c2=O)c1 (atropisomer, axis not shown)         8.19
1  CCOc1cc(Cl)c(-n2cnc(N)c(C(=O)Nc3cncc(C(C)NC)c3)c2=O)c(Cl)c1 (single isomer, unassigned)         8.39
2  Cc1cc(C)c(-n2cnc(N)c(C(=O)Nc3cncc([C@H]4CCCCN4)c3)c2=O)c(C)c1         8.52
3  CN[C@@H](COC)c1cncc(NC(=O)c2c(N)ncn(-c3c(Cl)cc(OC)cc3Cl)c2=O)c1 (single isomer, unassigned)         8.60

(a) CCOc1cc(Cl)c(-n2cnc(N)c(C(=O)Nc3cncc(C(N)C4CC4)c3)c2=O)c(Cl)c1 (single isomer, unassigned)
(b) Nc1ncn(-c2c(Cl)cc(OC3CC3)cc2Cl)c(=O)c1C(=O)Nc1cncc([C@@H]2CCCN2)c1
When the recorded pIC50 values are compared, which is smaller: that of a or that of b ? Indicate your choice by writing its label. a

====

molecular target: UniProtKB P49841; experiment: In vitro enzymatic activity assay, GSK3β; type: biochemical; parameters: Full length human GSK3α or GSK3B expressed as N-terminal GST fusion proteins; GST (N); purchased Carna Biosciences (Japan); host or cells: baculovirus host; conditions: 1.0 mM ATP, 1.0 μM peptide substrate, 120 min, 25° C, read-out: Enzyme GSK3β (IC50)
pIC50: −log10 of the molar value. Structures can show the parent of a compound that is named as a salt.
readout: pIC50

In [3]: df
Out[3]:
                                   compound    targetorsystem  readout  resultvalue
0  COc1cc(C)c(-n2cnc(N)c(C(=O)Nc3cncc([C@H]4CCCCN4)c3)c2=O)c(C)c1 [Example 205]  UniProtKB P49841    pIC50         6.62
1  CCOCc1cc(C)c(-n2cnc(N)c(C(=O)Nc3cncc([C@H]4CCCCN4)c3)c2=O)c(C)c1 [Example 131]  UniProtKB P49841    pIC50         6.70
2  COCc1cc(C)c(-n2cnc(N)c(C(=O)Nc3cncc([C@H]4CCCCN4)c3)c2=S)c(C)c1 [Example 163, trifluoroacetate]  UniProtKB P49841    pIC50         6.60
3  Cc1cc(C(F)(F)F)cc(C)c1-n1cnc(N)c(C(=O)Nc2cncc([C@H]3CCCCN3)c2)c1=S [Example 162, trifluoroacetate]  UniProtKB P49841    pIC50         6.66
4  CCC(N)c1cncc(NC(=O)c2c(N)ncn(-c3c(Cl)cncc3Cl)c2=O)c1 (single isomer, unassigned) [Example 153]  UniProtKB P49841    pIC50         6.46
5  CN[C@H](C)c1cccc(NC(=O)c2c(N)ncn(-c3c(C)cccc3Cl)c2=O)c1 (atropisomer, axis not shown) [Example 3]  UniProtKB P49841    pIC50         6.46
6  Nc1ncn(-c2c(Cl)cccc2Cl)c(=O)c1C(=O)Nc1cccc([C@H]2CC[C@H](CO)N2)c1 (single isomer, unassigned) [Example 191]  UniProtKB P49841    pIC50         6.64

====

target: GSK3B (Homo sapiens, UniProt P49841); experiment: NanoBRET cellular target engagement assay, Nanoluc-GSK3B in HEK293 cells; type: cell-based; set-up: expressed in transfected cells; settings: NanoBRET GSK3β IC50, HEK293 cells, tracer K-8, 2 hours, 37° C
Sequence (P49841 whole entry): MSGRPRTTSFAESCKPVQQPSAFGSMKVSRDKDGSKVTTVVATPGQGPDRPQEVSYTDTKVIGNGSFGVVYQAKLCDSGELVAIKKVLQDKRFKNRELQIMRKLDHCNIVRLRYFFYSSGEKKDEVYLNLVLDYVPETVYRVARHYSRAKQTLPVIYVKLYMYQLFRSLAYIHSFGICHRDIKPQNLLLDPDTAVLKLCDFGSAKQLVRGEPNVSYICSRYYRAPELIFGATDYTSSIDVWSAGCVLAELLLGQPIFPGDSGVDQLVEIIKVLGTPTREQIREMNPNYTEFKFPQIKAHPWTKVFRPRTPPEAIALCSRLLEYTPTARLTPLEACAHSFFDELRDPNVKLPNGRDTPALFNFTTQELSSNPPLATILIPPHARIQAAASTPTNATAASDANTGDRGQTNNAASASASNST
readout: IC50 (nM)

Guide cases for IC50, answers given:
>>> df
                                   compound  readout  resultvalue
0  COc1cc(C)c(-n2cnc(N)c(C(=O)Nc3cccc(C4(N)CCC4)c3)c2=O)c(Cl)c1     IC50          230
1  C[C@@H](N)c1cncc(NC(=O)c2c(N)ncn(-c3c(Cl)cc(OC4CC4)cc3Cl)c2=O)c1 (single isomer, unassigned)     IC50          124
2  CCOc1cc(Cl)c(-n2cnc(N)c(C(=O)Nc3cncc([C@@H]4CCCCN4)c3)c2=O)c(Cl)c1     IC50          350
3  COCc1cc(C)c(-n2cnc(N)c(C(=O)Nc3cncc(C4CNC(=O)CN4)c3)c2=O)c(C)c1 (single isomer, unassigned) [Example 159]     IC50         5790

(1) Nc1ncn(-c2c(Cl)cc(C(F)(F)F)cc2Cl)c(=O)c1C(=O)Nc1cncc([C@@H]2CCCCN2)c1
(2) Cc1cc(C(F)CF)cc(C)c1-n1cnc(N)c(C(=O)Nc2cncc(C3CCCCCN3)c2)c1=O (single isomer, unassigned) [Example 112]
Given 1 and given 2 , which shows the smaller recorded IC50? Field: selected label. Fill in the label of the entry you choose. 2
(2: 349 nM, 1: 502 nM)

====

target: GSK3A (Homo sapiens); test: NanoBRET cellular target engagement assay, Nanoluc-GSK3A in HEK293 cells; details: NanoBRET GSK3α IC50, HEK293 cells, tracer K-8, 2 hours, 37° C
readout: IC50 (nM)

(a) COC[C@H](N)c1cncc(NC(=O)c2c(N)ncn(-c3c(Cl)cc(OC(F)F)cc3Cl)c2=O)c1 (single isomer, unassigned)
(b) COc1cc(Cl)c(-n2cnc(N)c(C(=O)Nc3cncc([C@@H]4C[C@@H](C)N4)c3)c2=O)c(Cl)c1 (single isomer, unassigned)
(c) CCOc1cc(Cl)c(-n2cnc(N)c(C(=O)Nc3cncc(C(N)CC)c3)c2=O)c(Cl)c1 (single isomer, unassigned)
(d) Nc1ncn(-c2c(Cl)cccc2Cl)c(=O)c1C(=O)Nc1cccc([C@@H]2CNC(=O)CN2)c1 (single isomer, unassigned) [Example 189]
Hey, quick one: sort these by IC50, low to high? To answer, arrange all of the labels according to the requested order. c, a, b, d
(c: 1.8 nM, a: 2.9 nM, b: 8.9 nM, d: 69.4 nM)

(A) CCOc1cc(Cl)c(-n2cnc(N)c(C(=O)Nc3cncc(C(N)C4CC4)c3)c2=O)c(Cl)c1 (single isomer, unassigned)
(B) COCc1cc(Cl)c(-n2cnc(N)c(C(=O)Nc3cncc([C@@H](C)N)c3)c2=O)c(Cl)c1 (single isomer, unassigned) [Example 67]
(C) Nc1ncn(-c2c(O)cccc2Cl)c(=O)c1C(=O)Nc1cncc([C@@H]2CCCCN2)c1
(D) COc1cc(Cl)c(-n2cnc(N)c(C(=O)Nc3cncc(C4(N)CCCC4)c3)c2=O)c(Cl)c1
(E) CCOc1cc(Cl)c(-n2cnc(N)c(C(=O)Nc3cnnc(C(N)=O)c3)c2=O)c(Cl)c1
// ranking: key=IC50, reverse=True The reply should contain the labels ordered as requested. C, E, A, D, B
(C: 1510 nM, E: 9 nM, A: 5.1 nM, D: 2.6 nM, B: 1.4 nM)

(A) Nc1ncn(-c2c(Cl)cccc2Cl)c(=O)c1C(=O)Nc1cncc([C@@H]2CCCN2)c1
(B) Cc1cc(CCF)cc(C)c1-n1cnc(N)c(C(=O)Nc2cncc(C(C)N)c2)c1=O (single isomer, unassigned)
Min IC50? A | B Pick one and reply with its label. B
